- measurement.notes: in vivo
- details: rat, po, dose létale pour 50% des animaux, en nitrofurantoine pure
endpoint.label: LD50 (mg/kg)
Form entry: value (mg/kg) — number only.

Enquiry: Fill in reported LD50 for this entry: O=C1CN(N=Cc2ccc([N+](=O)[O-])o2)C(=O)N1 [Exemple 2]
Return: 1050

----------
- measurement.notes: in vivo
- details: mouse, po, dose létale pour 50% des animaux, en nitrofurantoïne pure
endpoint.label: LD50 (mg/kg)
Form entry: value (mg/kg) — number only.

Enquiry: Fill in reported LD50 for this entry: O=C1CN(N=Cc2ccc([N+](=O)[O-])o2)C(=O)N1 [Exemple 2]
Return: 530

----------
- measurement.notes: in vivo
- details: mouse, po, dose létale pour 50% des animaux
endpoint.label: LD50 (mg/kg)
Form entry: value (mg/kg) — number only.

Enquiry: Fill in reported LD50 for this entry: `O=C1CN(N=Cc2ccc([N+](=O)[O-])o2)C(=O)N1`
Return: 960

----------
- measurement.notes: in vivo
- details: rat, po, dose létale pour 50% des animaux
endpoint.label: LD50 (mg/kg)
Form entry: value (mg/kg) — number only.

Enquiry: Fill in reported LD50 for this entry: `O=C1CN(N=Cc2ccc([N+](=O)[O-])o2)C(=O)N1`
Return: 1910
